Where do these numbers come from? They come from patent US20190330358A1.

# STUDY TARGET: T1, Glutathione S-transferase (GST)-tagged AITR (human, UniProt Q9Y5U5 26-139)
# T1 construct: also called GST-AITR antigen; GST-AITR analyte; not shown: Glutathione S-transferase (GST) tag
# T1 sequence (looked up): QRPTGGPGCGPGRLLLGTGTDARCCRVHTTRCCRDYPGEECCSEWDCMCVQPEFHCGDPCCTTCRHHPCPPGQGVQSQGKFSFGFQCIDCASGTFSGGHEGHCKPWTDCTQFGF
# ASSAY PROTOCOL: SPR, Fab against the AITR antigen
// values below are reported kon
A number alone suffices; assume M⁻¹ s⁻¹.

Sample answers from the record:
Q. Identify measured kon associated with IRTCA-A1 (Clone L1E9) Fab (Fab, V domains shown) VH: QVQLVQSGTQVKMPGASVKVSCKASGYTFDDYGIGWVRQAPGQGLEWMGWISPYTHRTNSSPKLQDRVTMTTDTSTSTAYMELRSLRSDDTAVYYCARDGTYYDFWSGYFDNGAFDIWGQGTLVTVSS VL: QSVVTQPPSVSAAPGQKVTISCSGSTSNIGNNYVSWYQQLPGTAPKLLIYDNYKRPSGIPDRFSGSKSGTSATLGITGLRTGDEADYFCGSWESGSNAYKFGGGTKLTVL
A. 29600

Q. Identify measured kon associated with Parental IRTCA-A Fab (Fab, V domains shown) VH: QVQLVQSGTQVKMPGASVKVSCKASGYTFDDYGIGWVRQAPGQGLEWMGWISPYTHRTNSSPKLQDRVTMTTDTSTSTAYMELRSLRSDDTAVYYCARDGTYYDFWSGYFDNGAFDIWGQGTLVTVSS VL: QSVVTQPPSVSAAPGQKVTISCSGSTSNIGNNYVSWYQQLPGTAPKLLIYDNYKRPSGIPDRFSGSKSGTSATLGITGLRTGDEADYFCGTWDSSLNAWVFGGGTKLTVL
A. 11700

Q. Identify measured kon associated with IRTCA-A14 (Clone H2F8) Fab (Fab, V domains shown) VH: QVQLVQSGTQVKMPGASVKVSCKASGYTFDDYGIGWVRQAPGQGLEWMGWISPYTHRTNSSPKLQDRVTMTTDTSTSTAYMELRSLRSDDTAVYYCARDGTYYDFWSGYFDTAAFDIWGQGTLVTVSS VL: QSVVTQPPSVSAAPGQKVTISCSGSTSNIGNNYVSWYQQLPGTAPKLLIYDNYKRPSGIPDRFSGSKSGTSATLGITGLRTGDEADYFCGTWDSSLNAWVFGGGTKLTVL
A. 71100

Q. Identify measured kon associated with IRTCA-A10 (Clone H1A10) Fab (Fab, V domains shown) VH: QVQLVQSGTQVKMPGASVKVSCKASGYTFDDYGIGWVRQAPGQGLEWMGWISPYTHRTNSSPKLQDRVTMTTDTSTSTAYMELRSLRSDDTAVYYCARDGTYYDFWSGYFDNAAFDSWGQGTLVTVSS VL: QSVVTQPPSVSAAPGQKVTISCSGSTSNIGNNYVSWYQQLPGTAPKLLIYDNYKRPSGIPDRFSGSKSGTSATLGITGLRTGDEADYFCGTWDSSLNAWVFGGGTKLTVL
A. 41500

Q. Identify measured kon associated with IRTCA-A12 (Clone H2A10) Fab (Fab, V domains shown) VH: QVQLVQSGTQVKMPGASVKVSCKASGYTFDDYGIGWVRQAPGQGLEWMGWISPYTHRTNSSPKLQDRVTMTTDTSTSTAYMELRSLRSDDTAVYYCARDGTYYDFWSGYFDNATFDFWGQGTLVTVSS VL: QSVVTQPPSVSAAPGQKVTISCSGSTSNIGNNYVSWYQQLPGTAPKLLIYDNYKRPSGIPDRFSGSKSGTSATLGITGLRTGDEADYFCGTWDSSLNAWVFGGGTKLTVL
A. 69700

Moving on to another binder below.
Q. Identify measured kon associated with IRTCA-A15 (Clone H1F1) Fab (Fab, V domains shown) VH: QVQLVQSGTQVKMPGASVKVSCKASGYTFDDYGIGWVRQAPGQGLEWMGWISPYTHRTNSSPKLQDRVTMTTDTSTSTAYMELRSLRSDDTAVYYCARDGTYYDFWSGYFDNNAFDIWGQGTLVTVSS VL: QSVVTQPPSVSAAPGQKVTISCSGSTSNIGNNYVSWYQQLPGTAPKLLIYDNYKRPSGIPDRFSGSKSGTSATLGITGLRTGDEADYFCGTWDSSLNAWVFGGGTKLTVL
A. 130000
